target_system: NAD(P)H dehydrogenase [quinone] 1 (Homo sapiens)
run_description: Inhibition of recombinant human NQO1 assessed as reduction in oxidation of NADPH to NADP+ using b-lap as substrate and NADPH in presence of 0.14% (w/v) BSA
measured_quantity: pIC50
Lab note: report pIC50 as minus log10 of the concentration in molar units, number only.

Item: O=C1OC2(c3ccc(O)cc3Oc3cc(O)ccc32)c2ccc(NC(=S)NCCCCCCOc3ccc(/C=C/C(=O)c4c(O)c5ccccc5oc4=O)cc3)cc21 | pIC50: 6.01

* * *

target_system: NAD(P)H dehydrogenase [quinone] 1 (Homo sapiens)
run_description: Binding affinity to recombinant human NQO1 by fluorescence polarization competition assay
measured_quantity: pEC50
Lab note: report pEC50 as minus log10 of the concentration in molar units, number only.

Item: O=C1OC2(c3ccc(O)cc3Oc3cc(O)ccc32)c2ccc(NC(=S)NCCCCCCOc3ccc(/C=C/C(=O)c4c(O)c5ccccc5oc4=O)cc3)cc21 | pEC50: 5.53
